Assay read-out log10 IC50; system under study: PIK3CG (human) (UniProt P48736).
Sequence (P48736 whole entry, looked up): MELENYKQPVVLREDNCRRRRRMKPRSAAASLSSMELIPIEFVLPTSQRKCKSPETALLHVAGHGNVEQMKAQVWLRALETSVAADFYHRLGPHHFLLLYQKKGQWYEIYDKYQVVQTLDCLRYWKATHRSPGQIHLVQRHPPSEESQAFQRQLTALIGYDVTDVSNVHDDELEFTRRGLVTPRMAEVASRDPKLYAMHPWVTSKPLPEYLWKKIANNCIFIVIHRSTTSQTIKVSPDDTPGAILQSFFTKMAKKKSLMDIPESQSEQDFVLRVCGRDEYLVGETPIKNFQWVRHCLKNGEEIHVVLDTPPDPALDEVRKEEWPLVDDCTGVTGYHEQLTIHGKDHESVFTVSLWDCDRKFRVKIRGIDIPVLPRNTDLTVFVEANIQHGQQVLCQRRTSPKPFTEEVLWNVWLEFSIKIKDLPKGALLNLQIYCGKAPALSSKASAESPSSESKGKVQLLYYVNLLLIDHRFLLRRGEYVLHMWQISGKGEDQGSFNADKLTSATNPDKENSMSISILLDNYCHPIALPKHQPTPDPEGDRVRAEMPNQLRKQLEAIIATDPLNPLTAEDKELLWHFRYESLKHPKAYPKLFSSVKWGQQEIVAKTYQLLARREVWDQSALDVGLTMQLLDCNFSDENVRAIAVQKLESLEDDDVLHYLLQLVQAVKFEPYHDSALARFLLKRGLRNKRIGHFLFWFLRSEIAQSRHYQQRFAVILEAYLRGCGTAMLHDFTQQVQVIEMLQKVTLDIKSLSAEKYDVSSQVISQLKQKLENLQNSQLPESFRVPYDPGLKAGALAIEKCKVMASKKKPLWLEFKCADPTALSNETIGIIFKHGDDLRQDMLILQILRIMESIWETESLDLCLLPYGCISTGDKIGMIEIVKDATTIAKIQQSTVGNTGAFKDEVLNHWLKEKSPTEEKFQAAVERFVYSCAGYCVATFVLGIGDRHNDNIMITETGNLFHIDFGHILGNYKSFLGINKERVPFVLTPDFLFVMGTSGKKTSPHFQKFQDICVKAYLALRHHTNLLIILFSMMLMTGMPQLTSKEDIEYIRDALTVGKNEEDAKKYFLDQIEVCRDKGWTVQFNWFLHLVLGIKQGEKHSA
TEST_READOUT: log10 IC50 (log10 of the value in µM)

| COMPOUND | TEST_READOUT | REPORTED |
| --- | --- | --- |
| Cn1cc(C=C2Oc3cc(O)cc(O)c3C2=O)c2c(Cl)cccc21 | log10 IC50 | 1.00 |
| COc1ccc2c(c1)c(C=C1Oc3cccc(O)c3C1=O)c(C)n2CCN1CCOCC1 | log10 IC50 | 0.62 |
| O=C1C(=Cc2c(-c3ccccc3)n(CCN3CCCCC3)c3ccccc23)Oc2cc(O)cc(O)c21 | log10 IC50 | 0.69 |
| CN(c1ccccc1)c1cccc2c1c(/C=C1\Oc3cc(O)cc(O)c3C1=O)cn2C | log10 IC50 | 0.70 |
| COc1ccc2[nH]c(CCn3ccnc3)c(/C=C3\Oc4cc(O)cc(O)c4C3=O)c2c1 | log10 IC50 | -1.09 |
| COc1ccc2c(c1)c(C=C1Oc3c(ccc(O)c3O)C1=O)c(C)n2CCCCN1CCN(C)CC1 | log10 IC50 | 0.62 |
| O=C1/C(=C/c2c[nH]c3ccc(Cl)cc23)Oc2c1ccc(O)c2O | log10 IC50 | 0.70 |
| COc1ccc2c(c1)c(C=C1Oc3cccc(O)c3C1=O)c(C)n2CCN1CCN(CCO)CC1 | log10 IC50 | 0.60 |
| COc1cc(/C=C/CC2CCNCC2)c2[nH]cc(/C=C3\Oc4cc(O)ccc4C3=O)c2c1 | log10 IC50 | 0.28 |

----------
molecular target: PIK3CG (human); test: Inhibition of PIK3CG Kinase Activity
pIC50: −log10 of the molar value.
TEST_READOUT: pIC50

| COMPOUND | REPORTED |
| --- | --- |
| COc1ccc2c(c1)c(C=C1Oc3c(ccc(O)c3O)C1=O)c(C)n2CCCCN1CCOCC1 | 6.02 |
| COc1ccc2[nH]cc(/C=C3\Oc4cc(S(=O)(=O)OC(F)(F)F)ccc4C3=O)c2c1 | 5.03 |
| O=C1C(=Cc2c[nH]c3cc(Cl)ccc23)Oc2cc(O)cc(O)c21 | 5.00 |
| COC(=O)Nc1ccc2c(c1)C(=O)/C(=C/c1cn(CCN3CCN(C)CC3)c3ccc(OC)cc13)O2 | 5.13 |
| COc1ccc2c(c1)c(/C=C1\Oc3ccc(Br)cc3C1=O)cn2CCCN(C)C | 5.30 |
| Cn1cc(/C=C2\Oc3cc(O)cc(O)c3C2=O)c2c(Br)cccc21 | 5.71 |

----------
pIC50: −log10 of the molar value.
The following are reported pIC50 results, target or system PIK3CA (human).

| COMPOUND | pIC50 |
| --- | --- |
| COc1ccc2[nH]c(CCn3ccnc3)c(/C=C3\Oc4cc(O)cc(O)c4C3=O)c2c1 | 8.02 |
| COc1ccc2[nH]cc(/C=C3\Oc4cc(O)cc(Br)c4C3=O)c2c1 | 6.92 |
| COc1ccc2c(c1)c(C=C1Oc3c(ccc(O)c3O)C1=O)c(C)n2CCCCN1CCN(C)CC1 | 6.47 |
| COC(=O)Nc1ccc2c(c1)C(=O)/C(=C/c1cn(CCN3CCN(C)CC3)c3ccc(OC)cc13)O2 | 6.20 |
| COc1ccc2[nH]cc(/C=C3\Oc4c(OC)cccc4C3=O)c2c1 | 5.01 |
| Cc1ccc2c(c1)C(=O)/C(=C/c1c(C)[nH]c3ccc([N+](=O)[O-])cc13)S2 | 5.04 |
| CCc1cc(OC)cc2c(/C=C3\Oc4cc(O)cc(O)c4C3=O)cn(CCCC#N)c12 | 7.20 |
| COc1ccc2c(c1)c(C=C1Oc3c(ccc(O)c3O)C1=O)c(C)n2CCCCN1CCN(CCO)CC1 | 6.69 |
| COc1ccc2c(c1)c(C=C1Oc3cccc(O)c3C1=O)c(C)n2CCN1CCN(CCO)CC1 | 6.32 |
